target: cyclooxygenase-2 (COX-2) (Homo sapiens, UniProt P35354); construct: recombinant human COX-2; assay: isolated COX-2 activity assay ([…] AA, 12-HHT formation); […] residual activity at […]
Sequence (P35354 18-604): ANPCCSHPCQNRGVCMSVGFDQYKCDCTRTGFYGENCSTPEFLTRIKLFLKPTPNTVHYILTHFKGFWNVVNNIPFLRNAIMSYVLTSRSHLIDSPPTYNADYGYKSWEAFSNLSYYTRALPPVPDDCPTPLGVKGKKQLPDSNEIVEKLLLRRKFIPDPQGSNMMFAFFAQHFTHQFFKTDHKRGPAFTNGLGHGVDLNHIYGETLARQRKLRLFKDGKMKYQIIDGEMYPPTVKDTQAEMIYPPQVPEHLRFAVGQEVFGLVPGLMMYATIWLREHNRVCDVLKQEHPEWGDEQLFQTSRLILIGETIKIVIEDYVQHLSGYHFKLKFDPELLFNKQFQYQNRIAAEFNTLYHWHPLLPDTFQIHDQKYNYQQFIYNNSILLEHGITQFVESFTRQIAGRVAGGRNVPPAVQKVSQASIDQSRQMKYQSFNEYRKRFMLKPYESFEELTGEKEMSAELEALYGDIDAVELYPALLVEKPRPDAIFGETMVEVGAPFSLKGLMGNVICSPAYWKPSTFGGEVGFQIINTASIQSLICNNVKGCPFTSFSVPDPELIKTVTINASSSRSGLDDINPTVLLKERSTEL
TEST READOUT: IC50

# returns recorded IC50 (system: cyclooxygenase-2 (COX-2) (Homo sapiens, UniProt P35354)) for C[C@H]1COC2=C1C(=O)C(=O)c1c2ccc2c1CCCC2(C)C [CRY, cryptotanshinone]
> 30 µM

====

biological target: 5-lipoxygenase (5-LO) (Homo sapiens); construct: recombinant, expressed in E. coli BL21 (DE3) with pT3-5-LO, purified on ATP-agarose; experiment: isolated 5-LO activity assay ([…] AA, products by RP-HPLC)
Sequence (P09917 whole entry): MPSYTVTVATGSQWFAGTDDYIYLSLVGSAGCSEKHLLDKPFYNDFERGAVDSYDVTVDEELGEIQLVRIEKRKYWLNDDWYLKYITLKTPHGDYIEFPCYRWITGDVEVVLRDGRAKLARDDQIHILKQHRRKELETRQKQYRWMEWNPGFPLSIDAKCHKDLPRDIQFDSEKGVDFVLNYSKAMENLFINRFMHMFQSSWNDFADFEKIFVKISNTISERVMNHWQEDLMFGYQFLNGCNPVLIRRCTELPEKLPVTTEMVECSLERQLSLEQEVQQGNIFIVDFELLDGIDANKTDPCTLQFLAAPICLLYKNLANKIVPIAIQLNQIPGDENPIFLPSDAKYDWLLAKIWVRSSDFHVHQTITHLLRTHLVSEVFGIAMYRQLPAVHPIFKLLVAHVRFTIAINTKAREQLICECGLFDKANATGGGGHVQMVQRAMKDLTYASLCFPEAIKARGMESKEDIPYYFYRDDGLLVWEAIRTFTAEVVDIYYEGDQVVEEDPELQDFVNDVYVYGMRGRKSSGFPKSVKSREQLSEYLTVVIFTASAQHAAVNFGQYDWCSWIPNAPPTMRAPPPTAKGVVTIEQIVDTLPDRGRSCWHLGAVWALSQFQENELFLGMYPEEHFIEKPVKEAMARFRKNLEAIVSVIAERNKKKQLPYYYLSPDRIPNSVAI
TEST READOUT: IC50
Note to self: number, then unit, no commentary.

// lookup IC50 for C[C@H]1COC2=C1C(=O)C(=O)c1c2ccc2c1CCCC2(C)C [CRY, cryptotanshinone]
7.1 µM
